Biological target: T1, human GIP receptor (human, UniProt P48546 22-466)
T1 construct: whole, on cells; also called hGIPR
T1 sequence (looked up): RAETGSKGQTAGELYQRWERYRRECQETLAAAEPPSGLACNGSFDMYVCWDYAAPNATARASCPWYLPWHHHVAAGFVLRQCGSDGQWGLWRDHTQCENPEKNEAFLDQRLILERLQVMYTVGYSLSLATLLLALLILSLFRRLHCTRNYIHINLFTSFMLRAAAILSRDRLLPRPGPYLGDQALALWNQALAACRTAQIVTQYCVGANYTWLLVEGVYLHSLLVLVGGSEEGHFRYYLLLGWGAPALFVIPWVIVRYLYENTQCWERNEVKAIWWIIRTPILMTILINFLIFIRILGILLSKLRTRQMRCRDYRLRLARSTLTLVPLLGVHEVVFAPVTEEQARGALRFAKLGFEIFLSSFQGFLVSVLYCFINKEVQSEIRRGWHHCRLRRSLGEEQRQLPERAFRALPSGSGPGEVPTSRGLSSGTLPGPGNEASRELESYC
Test: competition binding vs 125I-GIP(1-42), COS-7 cells transfected with human GIP receptor
Ends that are not written are not given here.
measurement type: fold change of GIP(1-30)NH2 affinity (fold)

INSERT INTO assay_data (binder, measured_result) VALUES
  ('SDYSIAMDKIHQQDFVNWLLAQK-NH2 (also called human GIP(8-30)NH2; hGIP(8-30)) [GIP(8-30)NH2]', 89),
  ('DYSIAMDKIHQQDFVNWLLAQK-NH2 (also called human GIP(9-30)NH2; hGIP(9-30)) [GIP(9-30)NH2]', 345),
  ('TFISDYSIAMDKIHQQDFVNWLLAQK-NH2 (also called human GIP(5-30)NH2; hGIP5-30) [GIP(5-30)NH2]', 6.6);

[I] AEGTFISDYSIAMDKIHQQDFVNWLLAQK-NH2 (also called human GIP(2-30)NH2; hGIP(2-30)) [GIP(2-30)NH2]
[II] FISDYSIAMDKIHQQDFVNWLLAQK-NH2 (also called human GIP(6-30)NH2; hGIP(6-30)) [GIP(6-30)NH2]
[III] GTFISDYSIAMDKIHQQDFVNWLLAQK-NH2 (also called human GIP(4-30)NH2; hGIP4-30) [GIP(4-30)NH2]
[IV] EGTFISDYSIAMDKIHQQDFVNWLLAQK-NH2 (also called human GIP(3-30)NH2; hGIP(3-30)NH2) [GIP(3-30)NH2]
(Q) Sequence the entries by fold change of GIP(1-30)NH2 affinity, beginning with the highest number. I would appreciate it if you listed the labels in the requested order.
(A) II, III, I, IV
(II: 391 fold, III: 24 fold, I: 16 fold, IV: 2.6 fold)
